# credit: PubChem BioAssay AID2551

- TEST_SYSTEM: Nuclear receptor ROR-gamma (Mus musculus)
- ASSAY_EXPLANATION: qHTS for inhibitors of ROR gamma transcriptional activity; note: nearly all actives have a fitted effect of over 60% in size
- ASSAY_CONDITIONS: Drosophila S2 Gal4-RORgamma UAS-luciferase reporter, 20 h; series mostly up to 53.6 µM
- Source text: NIH Molecular Libraries Probe Production Network [MLPCN] NIH Chemical Genomics Center [NCGC] […] Small molecule inhibitors of ROR gamma activity are detected by a decrease in luciferase reporter activity. […]
In all, about 310,000 compounds went through this assay and about 17,000 (5.5%) were called active. About 11% were inconclusive and are not listed. Calls come from the whole dose curve; as a rule, active = well fitted inhibition curve with a large enough effect; inconclusive = small, poorly fitted or top-dose-only effect, or effect the other way; inactive = no such curve, though single readings can be large or run the other way. Many of the other results were omitted from the sample, so actives are more common in it than they were.
// classify into 1 = active, -1 = inactive

Worked cases, answers included:
>>> class_name("CCOC(=O)c1[nH]cnc1C(=O)Nc1ccccc1C")
1
>>> class_name("CCOC(=O)c1ccc(NC(=O)CNC(=O)c2ccco2)cc1")
-1
>>> class_name("CCOC(=O)CSc1nc(N2CCOCC2)c2c(c1C#N)CC(C(C)C)OC2 (stereo not given)")
-1
>>> class_name("COc1ccc(C)cc1N(C(=O)Cn1nnc(-c2ccc(C)o2)n1)C(C(=O)NC1CCCC1)c1ccncc1 (stereo not given)")
-1
>>> class_name("Cc1ccccc1NC(=O)CCOc1ccccc1")
-1
>>> class_name("C[C@@H]1CC[C@@]2(OC1)O[C@H]1C[C@H]3[C@@H]4CC=C5C[C@@H](O)[C@H](O)C[C@]5(C)C4CC[C@]3(C)[C@H]1[C@@H]2C (stereo not given in full)")
-1

Q: Given COc1ccc(CNC(=O)c2ccc3oc(C(C)C)nc3c2)cc1 , state the outcome it received in this test.
A: -1

Q: Call for entry CCOC(=O)c1ccc(NC(=O)c2cc(=O)[nH]c3ccccc23)cc1 :
A: -1

Q: I would be grateful if you could indicate the recorded call for CCOC(=O)c1ccc(NC(=O)c2nc[nH]c2C(=O)NCc2ccccc2)cc1 .
A: 1

Q: What did this assay record as the result for CCOC(=O)c1c(C)[nH]c(C)c1S(=O)(=O)N(C)CC(=O)Nc1ccccc1C ?
A: -1

====

- TEST_SYSTEM: Nuclear receptor ROR-gamma (Mus musculus)
- ASSAY_EXPLANATION: qHTS for inhibitors of ROR gamma transcriptional activity; note: nearly all actives have a fitted effect of over 60% in size
- ASSAY_CONDITIONS: Drosophila S2 Gal4-RORgamma UAS-luciferase reporter, 20 h; series mostly up to 53.6 µM
The whole screen tested about 310,000 compounds, of which about 17,000 (5.5%) were called active. Another 11% or so got no clear call; they are omitted. The call rests on the fitted dose curve; in most records, active means well fitted inhibition curve with a large enough effect; inconclusive means small, poorly fitted or top-dose-only effect, or effect the other way; inactive means no such curve, though single readings can be large or run the other way. This is one part of a sample in which actives are shown more often than they occur.
Bench note: report the call from 1 (yes) for active, 0 (no) for inactive

See these solved cases before continuing.
>>> class_name("CCOc1ccc2[nH]c3nc(SCC(=O)NC4CCCC4)nnc3c2c1")
"0 (no)"
>>> class_name("CC1(C)C(c2cccs2)=[N+]([O-])C2(CCCCC2=O)N1O (stereo not given)")
"0 (no)"
>>> class_name("CC(=O)C1(C)N(O)C(C)(C)C(c2cccs2)=[N+]1[O-] (stereo not given)")
"1 (yes)"

Q: Recorded test outcome, item C/C(=N\O)C1(C)N(O)C(C)(C)C(c2ccc(Br)cc2)=[N+]1[O-] (stereo not given)
A: 0 (no)

Q: Please indicate how the test categorized CC1Cc2cc(/C(O)=C3\C(=O)C(=O)N(Cc4cccnc4)C3c3ccccc3F)ccc2O1 (stereo not given) .
A: 0 (no)

====

- TEST_SYSTEM: Nuclear receptor ROR-gamma (Mus musculus) (UniProt P51450)
- Sequence (P51450 whole entry, looked up): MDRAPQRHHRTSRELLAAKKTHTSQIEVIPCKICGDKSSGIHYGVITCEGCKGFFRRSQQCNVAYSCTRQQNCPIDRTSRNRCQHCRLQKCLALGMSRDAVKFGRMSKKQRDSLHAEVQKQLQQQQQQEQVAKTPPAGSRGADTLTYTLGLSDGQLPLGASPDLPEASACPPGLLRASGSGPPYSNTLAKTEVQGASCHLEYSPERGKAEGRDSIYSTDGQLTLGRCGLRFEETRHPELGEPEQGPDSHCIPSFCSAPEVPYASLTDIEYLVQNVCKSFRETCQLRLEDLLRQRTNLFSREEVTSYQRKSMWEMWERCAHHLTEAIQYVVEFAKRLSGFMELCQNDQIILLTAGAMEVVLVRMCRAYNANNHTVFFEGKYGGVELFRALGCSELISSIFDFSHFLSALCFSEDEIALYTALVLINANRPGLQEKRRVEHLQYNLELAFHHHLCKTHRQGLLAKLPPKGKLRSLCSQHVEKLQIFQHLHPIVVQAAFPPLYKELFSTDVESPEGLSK
- ASSAY_EXPLANATION: qHTS for inhibitors of ROR gamma transcriptional activity; note: nearly all actives have a fitted effect of over 60% in size
- ASSAY_CONDITIONS: Drosophila S2 Gal4-RORgamma UAS-luciferase reporter, 20 h; series mostly up to 53.6 µM
About 17,000 (5.5%) of roughly 310,000 compounds were called active. About 11% were inconclusive and are not listed. Calls come from the whole dose curve; as a rule, active = well fitted inhibition curve with a large enough effect; inconclusive = small, poorly fitted or top-dose-only effect, or effect the other way; inactive = no such curve, though single readings can be large or run the other way. The full list was thinned out, with actives kept by preference.
// classify into active, inactive

Q: For C=CCc1cccc(/C=N/NC(=O)COc2ccc(-n3cnnn3)cc2)c1O , which call appears in the assay record?
A: active

Q: Which outcome was entered for the compound CCC(C)(C)NC(=O)CN(C(=O)CCC(=O)Nc1nccs1)c1ccc2c(c1)OCO2 in this test?
A: inactive

Q: Called result for CC(C)c1cc(C(=O)N/N=C/c2ccoc2)c(O)c(C(C)C)c1
A: active

Q: Called result for N#Cc1cccc(CS(=O)(=O)c2nnnn2-c2cc(C(F)(F)F)cc(C(F)(F)F)c2)c1
A: inactive

Q: Please state the recorded outcome for this compound: COc1ccccc1-n1nnnc1S(=O)(=O)Cc1ccc(Cl)cc1
A: active

Q: Record request — test call for O=C(Nc1nnc(-c2ccc(F)cc2)s1)c1c(F)cccc1Cl
A: inactive

Q: What did the test return for c1ccc(CN=C2Nc3ccccc3CS2)nc1 ?
A: active

Q: What is the recorded call for this compound in the test? O=C(COc1ccc(-n2cnnn2)cc1)Nc1ccccc1Cl
A: inactive

Q: Fill in: this test's call for Cc1cc(C)cc(N(CCC#N)C(=O)CN2C(=O)NC3(CCCC3)C2=O)c1 is ___
A: inactive

Q: Hi, sorry to bother you, what did the test record for COc1ccc2[nH]c(=O)c(C3c4cc(OC)c(OC)cc4CCN3C(=O)c3ccco3)cc2c1 (stereo unspecified) ?
A: inactive

Q: # lookup: test call for Cc1ccc(C)c(-n2ccnc2SCC(N)=O)c1
A: inactive

====

- TEST_SYSTEM: Nuclear receptor ROR-gamma (Mus musculus) (UniProt P51450)
- ASSAY_EXPLANATION: qHTS for inhibitors of ROR gamma transcriptional activity; note: nearly all actives have a fitted effect of over 60% in size
- ASSAY_CONDITIONS: Drosophila S2 Gal4-RORgamma UAS-luciferase reporter, 20 h; series mostly up to 53.6 µM
Out of some 310,000 compounds screened, about 17,000 (5.5%) were called active. Roughly 11% stayed inconclusive and do not appear here. Calls follow the shape of the dose curve; as a rule, active = well fitted inhibition curve with a large enough effect; inconclusive = small, poorly fitted or top-dose-only effect, or effect the other way; inactive = no such curve, though single readings can be large or run the other way. What follows is part of a selection rich in actives, with near analogues and random picks from the rest.
One label from this list, please: active, inactive

>>> class_name("Cc1scc(C(=O)NNC(=S)NCC(C)C)c1C")
"active"
>>> class_name("Cc1cccc(C(=O)OCC(=O)NCC(C)C)c1O")
"inactive"
>>> class_name("Cc1cccc(C(=O)OCC(=O)Nc2ccc(F)cc2)c1")
"inactive"

Q: Test call for this compound, please: Cc1cccc(NC(=O)c2ccc(OCC(=O)NCc3ccccc3)cc2)c1C
A: inactive

Q: Test call for this compound, please: Cc1scc(C(=O)NNC(=S)NCc2ccccc2)c1C
A: active

Q: Which outcome was entered for the compound O=C(NNC(=S)NCc1ccccc1)c1ccc(OC(F)F)cc1 in this test?
A: inactive

====

- TEST_SYSTEM: Nuclear receptor ROR-gamma (Mus musculus)
- ASSAY_EXPLANATION: qHTS for inhibitors of ROR gamma transcriptional activity; note: nearly all actives have a fitted effect of over 60% in size
- ASSAY_CONDITIONS: Drosophila S2 Gal4-RORgamma UAS-luciferase reporter, 20 h; series mostly up to 53.6 µM
In all, about 310,000 compounds went through this assay and about 17,000 (5.5%) were called active. Inconclusive results (about 11%) are left out. Calls follow the shape of the dose curve; as a rule, active = well fitted inhibition curve with a large enough effect; inconclusive = small, poorly fitted or top-dose-only effect, or effect the other way; inactive = no such curve, though single readings can be large or run the other way. What follows is part of a selection rich in actives, with near analogues and random picks from the rest.
Outcome field: choose from true for active, false for inactive

Some solved entries appear below for comparison.
>>> class_name("O=C1CSc2ccc(S(=O)(=O)NCc3ccccc3)cc2N1")
"false"
>>> class_name("Cn1ncc2c(N3CCCCC3)nc(NCCCO)nc21")
"false"
>>> class_name("Cc1cnc(NC(=O)CSc2c(Cl)cccc2Cl)s1")
"false"
>>> class_name("CCc1ccc2[nH]c(=O)c(Cc3ccccc3)c(O)c2c1")
"false"
>>> class_name("Cc1cnc(NC(=O)CSc2nnc(C)s2)s1")
"false"

Q: Assay outcome for C/C(=N\Nc1nc(N2CCOCC2)nc(N2CCOCC2)n1)c1ccc([N+](=O)[O-])cc1 : what was it?
A: false

====

- TEST_SYSTEM: Nuclear receptor ROR-gamma (Mus musculus)
- ASSAY_EXPLANATION: qHTS for inhibitors of ROR gamma transcriptional activity; note: nearly all actives have a fitted effect of over 60% in size
- ASSAY_CONDITIONS: Drosophila S2 Gal4-RORgamma UAS-luciferase reporter, 20 h; series mostly up to 53.6 µM
Out of some 310,000 compounds screened, about 17,000 (5.5%) were called active. Another 11% or so got no clear call; they are omitted. Calls follow the shape of the dose curve; as a rule, active = well fitted inhibition curve with a large enough effect; inconclusive = small, poorly fitted or top-dose-only effect, or effect the other way; inactive = no such curve, though single readings can be large or run the other way. The full list was thinned out, with actives kept by preference.
Outcome field: choose from active, inactive

Please review the following examples before continuing.
>>> class_name("COc1ccccc1CNC(=O)c1ccc(N(C)S(=O)(=O)c2ccc(C)cc2)cc1")
"inactive"
>>> class_name("COc1ccc(-n2c(C)csc2=S)cc1")
"inactive"
>>> class_name("COc1ccc(S(=O)(=O)N2CCOCC2)cc1C(=O)Nc1nc2ccccc2s1")
"inactive"
>>> class_name("Cc1ccc(SCCSc2ncccn2)cc1")
"inactive"
>>> class_name("COc1ccc(-c2cn(-c3ccc(OC)cc3)c(=S)[nH]2)cc1")
"active"
>>> class_name("Nc1ccn(C2CC(O)C(CO)O2)c(=O)n1 (centres undefined)")
"inactive"

For the next question, use this molecule.
Q: Name the outcome recorded for CCc1ccc(NC(=O)NC(C)c2ccc3c(c2)OCO3)cc1 (centres undefined) in the assay.
A: inactive
